# Assay type: in vivo, human
# SETUP CONDITIONS: both, human, plasma, oral, 100 mg
READOUT NAME: Tmax (h)
Just the number please, in h, no unit attached.

Which Tmax is listed for COc1ccc(CN(C(=O)[C@@H](N)Cc2c(C)cc(C(N)=O)cc2C)[C@@H](C)c2ncc(-c3ccccc3)[nH]2)cc1C(=O)O [eluxadoline] ?
2.1

====

# Format: in vivo, human
# SETUP CONDITIONS: both, human, plasma, oral, AUC(0–inf), Geometric LS Means, Treatment B (+ cyclosporine 600 mg); all profiles with estimable elimination rates (N 19)
READOUT NAME: AUC(0-inf) (ng·h/mL)
Output spec: scalar in ng·h/mL, unitless text.

Param item = COc1ccc(CN(C(=O)[C@@H](N)Cc2c(C)cc(C(N)=O)cc2C)[C@@H](C)c2ncc(-c3ccccc3)[nH]2)cc1C(=O)O ; retrieve measured AUC(0-inf).
62.6

Just for reference, paper PMC4402028 is where these values come from.
